Target: ZmDRIK1 (DROUGHT RESPONSIVE INACTIVE KINASE 1), kinase domain (Zea mays)
Construct: gene ZEAMMB73_Zm00001d028770; ZmDRIK1-KD R187-S514 (kinase domain)
Experiment: biochemical
Conditions: read-out: dTm B, sheet ZmDRIK1-R187-S514;; DSF, Boltzmann fit, 0.1% DMSO
Structures can show the parent of a compound that is named as a salt.
parameter: ΔTm at 10 µM (°C)

>  <molecule>
Oc1c2ccccc2c2c3c(cccc13)N=N2

>  <parameter>
ΔTm at 10 µM

>  <unit name>
°C

>  <recorded value>
-0.63

$$$$
>  <molecule>
Cc1cc(F)c(Nc2ncnc3cc(OCc4ccccc4)ccc23)cc1O [ZM 323881 HCl]

>  <parameter>
ΔTm at 10 µM

>  <unit name>
°C

>  <recorded value>
-1.06

$$$$
>  <molecule>
Cc1ccc(-c2nn(C(C)(C)C)c3ncnc(N)c23)cc1

>  <parameter>
ΔTm at 10 µM

>  <unit name>
°C

>  <recorded value>
-0.972

$$$$

[P] O=C(NC(NC(=S)Nc1ccc(F)c([N+](=O)[O-])c1)C(Cl)(Cl)Cl)C(c1ccccc1)c1ccccc1 (centres unmarked)
[Q] CCc1cncnc1N1CCN(Cc2nc3ccc(C(F)(F)F)cc3[nH]2)CC1
Hey, between P and Q which has a smaller measured ΔTm at 10 µM? // return label of chosen record
Q
(Q: -0.759 °C, P: 0.221 °C)

----------
Target: ZmDRIK1-R187-P492 (Zea mays, UniProt C0P4K9)
Construct: kinase domain, R187-P492
Sequence (C0P4K9 1-514): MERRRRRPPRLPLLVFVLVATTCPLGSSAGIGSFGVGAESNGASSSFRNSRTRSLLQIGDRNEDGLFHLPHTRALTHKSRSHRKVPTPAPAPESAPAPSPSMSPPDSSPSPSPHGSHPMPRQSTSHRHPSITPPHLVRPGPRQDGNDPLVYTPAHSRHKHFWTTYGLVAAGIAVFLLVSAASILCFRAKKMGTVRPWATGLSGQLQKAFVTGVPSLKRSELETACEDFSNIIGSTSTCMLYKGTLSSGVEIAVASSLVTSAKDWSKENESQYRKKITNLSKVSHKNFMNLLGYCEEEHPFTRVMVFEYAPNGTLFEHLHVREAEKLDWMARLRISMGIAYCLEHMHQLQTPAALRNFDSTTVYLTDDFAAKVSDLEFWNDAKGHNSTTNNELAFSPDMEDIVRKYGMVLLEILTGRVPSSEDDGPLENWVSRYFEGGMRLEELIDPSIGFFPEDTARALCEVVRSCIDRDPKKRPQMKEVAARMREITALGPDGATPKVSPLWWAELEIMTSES
Test: biochemical
Settings: read-out: dTm B, DSF, Boltzmann fit, 0.1% DMSO
parameter: ΔTm at 10 µM (°C)

# example entries with known answers
>  <compound>
Cc1cn(-c2cc(NC(=O)c3ccc(C)c(Nc4nccc(-c5cccnc5)n4)c3)cc(C(F)(F)F)c2)cn1 [Nilotinib (AMN-107)]

>  <measurement target>
ZmDRIK1-R187-P492 (Zea mays, UniProt C0P4K9)

>  <unit name>
°C

>  <ΔTm at 10 µM>
-5.14

$$$$
>  <compound>
C[C@]1(O)C[C@@H](c2nc(-c3ccc4ccc(-c5ccccc5)nc4c3)c3c(N)nccn32)C1 [OSI-906 (Linsitinib)]

>  <measurement target>
ZmDRIK1-R187-P492 (Zea mays, UniProt C0P4K9)

>  <unit name>
°C

>  <ΔTm at 10 µM>
-0.547

$$$$
>  <compound>
C=CCc1ccc(O)c(-c2ccc(O)c(CC=C)c2)c1 [Honokiol]

>  <measurement target>
ZmDRIK1-R187-P492 (Zea mays, UniProt C0P4K9)

>  <unit name>
°C

>  <ΔTm at 10 µM>
-0.457

$$$$
>  <compound>
C=CC(=O)N1CCC[C@@H](n2nc(-c3ccc(Oc4ccccc4)cc3)c3c(N)ncnc32)C1 [Ibrutinib (PCI-32765)]

>  <measurement target>
ZmDRIK1-R187-P492 (Zea mays, UniProt C0P4K9)

>  <unit name>
°C

>  <ΔTm at 10 µM>
-0.476

$$$$
>  <compound>
COc1ccc(F)c(F)c1C(=O)c1cnc(NC2CCN(S(C)(=O)=O)CC2)nc1N [R547]

>  <measurement target>
ZmDRIK1-R187-P492 (Zea mays, UniProt C0P4K9)

>  <unit name>
°C

>  <ΔTm at 10 µM>
-0.297

$$$$

[1] CC(C)(C#N)c1ccc(N2C(=O)OCc3cnc4ccc(-c5cnc6ccccc6c5)cc4c32)cc1 [ETP-46464]
[2] OCCn1cc(-c2cnc3nnn(Cc4ccc5ncccc5c4)c3n2)cn1 [PF-04217903]
Which has the higher ΔTm at 10 µM, 1 or 2 ? Your answer should be the label attached to the chosen record.
2
(2: -0.0503 °C, 1: -0.423 °C)
